- assay name: MTT cytotoxicity, summary statements over the cell lines
- Format: cell-based, human
- test parameters: human (HepG2, HT-29, Hela, BGC-823); dog (MDCK), HepG2, HT-29, Hela, BGC-823 and MDCK cells, four cancer cell lines and MDCK, MTT; read-out: IC50, cytotoxicity on both cancer and MDCK cells
property measured: IC50 at 72 h

The value of IC50 at 72 h measured for the compound Cc1nc(C)c(COC(=O)[C@]23CCC(C)(C)CC2C2=CCC4[C@@]5(C)CC[C@H](OC(=O)[C@@H](N)CCCCN)C(C)(C)C5CC[C@@]4(C)[C@]2(C)CC3)nc1C (stereo partly shown) [Compound 6g] turned out to be < 2500 nM
